Measured FACS-Seq fitted mean (log10) by item
B1: library; a variant is named by its letters at N, in order (parent)
chain: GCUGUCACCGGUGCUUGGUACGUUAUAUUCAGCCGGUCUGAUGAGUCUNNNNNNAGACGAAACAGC

# Variants of: B1
# assay details: FACS-Seq fitted mean relative fluorescence mCherry/BFP with ligand (log10 relative fluorescence); HEK293T overexpressing SLC46A1; ligand concentration (+) FACS-Seq: 6 mM; higher = higher reporter protein expression
# study conditions: with (6R,S)-folinic acid; ligand present: yes
Format: numeric value only, no unit, no commentary.

[
  {
    "polymer sequence": "GCUGUCACCGGUGCUUGGUACGUUAUAUUCAGCCGGUCUGAUGAGUCUAUGCACAGACGAAACAGC [AUGCAC]",
    "FACS-Seq fitted mean (log10)": 0.703
  },
  {
    "polymer sequence": "GCUGUCACCGGUGCUUGGUACGUUAUAUUCAGCCGGUCUGAUGAGUCUGAACGGAGACGAAACAGC [GAACGG]",
    "FACS-Seq fitted mean (log10)": 0.104
  },
  {
    "polymer sequence": "GCUGUCACCGGUGCUUGGUACGUUAUAUUCAGCCGGUCUGAUGAGUCUGGACUAAGACGAAACAGC [GGACUA]",
    "FACS-Seq fitted mean (log10)": 0.202
  }
]

Give its FACS-Seq fitted mean (log10) value. Item: GCUGUCACCGGUGCUUGGUACGUUAUAUUCAGCCGGUCUGAUGAGUCUAAAACUAGACGAAACAGC [AAAACU]
0.358

Give its FACS-Seq fitted mean (log10) value. Item: GCUGUCACCGGUGCUUGGUACGUUAUAUUCAGCCGGUCUGAUGAGUCUUCAGGGAGACGAAACAGC [UCAGGG]
0.351

Give its FACS-Seq fitted mean (log10) value. Item: GCUGUCACCGGUGCUUGGUACGUUAUAUUCAGCCGGUCUGAUGAGUCUUUAUCUAGACGAAACAGC [UUAUCU]
0.133

Give its FACS-Seq fitted mean (log10) value. Item: GCUGUCACCGGUGCUUGGUACGUUAUAUUCAGCCGGUCUGAUGAGUCUAACAGGAGACGAAACAGC [AACAGG]
0.351

Give its FACS-Seq fitted mean (log10) value. Item: GCUGUCACCGGUGCUUGGUACGUUAUAUUCAGCCGGUCUGAUGAGUCUGCGAGAAGACGAAACAGC [GCGAGA]
0.197

Give its FACS-Seq fitted mean (log10) value. Item: GCUGUCACCGGUGCUUGGUACGUUAUAUUCAGCCGGUCUGAUGAGUCUGAGCACAGACGAAACAGC [GAGCAC]
-0.159

Give its FACS-Seq fitted mean (log10) value. Item: GCUGUCACCGGUGCUUGGUACGUUAUAUUCAGCCGGUCUGAUGAGUCUUGGUACAGACGAAACAGC [UGGUAC]
-0.0596

Give its FACS-Seq fitted mean (log10) value. Item: GCUGUCACCGGUGCUUGGUACGUUAUAUUCAGCCGGUCUGAUGAGUCUGAUGGCAGACGAAACAGC [GAUGGC]
0.542

Give its FACS-Seq fitted mean (log10) value. Item: GCUGUCACCGGUGCUUGGUACGUUAUAUUCAGCCGGUCUGAUGAGUCUGACGGGAGACGAAACAGC [GACGGG]
0.302

Give its FACS-Seq fitted mean (log10) value. Item: GCUGUCACCGGUGCUUGGUACGUUAUAUUCAGCCGGUCUGAUGAGUCUGCCAGCAGACGAAACAGC [GCCAGC]
0.102

Give its FACS-Seq fitted mean (log10) value. Item: GCUGUCACCGGUGCUUGGUACGUUAUAUUCAGCCGGUCUGAUGAGUCUUAUCAUAGACGAAACAGC [UAUCAU]
-0.0472

Give its FACS-Seq fitted mean (log10) value. Item: GCUGUCACCGGUGCUUGGUACGUUAUAUUCAGCCGGUCUGAUGAGUCUAUAAAUAGACGAAACAGC [AUAAAU]
0.359

These data points were gathered from the supplement of paper PMC6757056.
